Listed compounds paired with reported kinase still bound, per cent of control
- study system: BRSK1 (human) (UniProt Q8TDC3)
- Sequence (Q8TDC3 whole entry, looked up): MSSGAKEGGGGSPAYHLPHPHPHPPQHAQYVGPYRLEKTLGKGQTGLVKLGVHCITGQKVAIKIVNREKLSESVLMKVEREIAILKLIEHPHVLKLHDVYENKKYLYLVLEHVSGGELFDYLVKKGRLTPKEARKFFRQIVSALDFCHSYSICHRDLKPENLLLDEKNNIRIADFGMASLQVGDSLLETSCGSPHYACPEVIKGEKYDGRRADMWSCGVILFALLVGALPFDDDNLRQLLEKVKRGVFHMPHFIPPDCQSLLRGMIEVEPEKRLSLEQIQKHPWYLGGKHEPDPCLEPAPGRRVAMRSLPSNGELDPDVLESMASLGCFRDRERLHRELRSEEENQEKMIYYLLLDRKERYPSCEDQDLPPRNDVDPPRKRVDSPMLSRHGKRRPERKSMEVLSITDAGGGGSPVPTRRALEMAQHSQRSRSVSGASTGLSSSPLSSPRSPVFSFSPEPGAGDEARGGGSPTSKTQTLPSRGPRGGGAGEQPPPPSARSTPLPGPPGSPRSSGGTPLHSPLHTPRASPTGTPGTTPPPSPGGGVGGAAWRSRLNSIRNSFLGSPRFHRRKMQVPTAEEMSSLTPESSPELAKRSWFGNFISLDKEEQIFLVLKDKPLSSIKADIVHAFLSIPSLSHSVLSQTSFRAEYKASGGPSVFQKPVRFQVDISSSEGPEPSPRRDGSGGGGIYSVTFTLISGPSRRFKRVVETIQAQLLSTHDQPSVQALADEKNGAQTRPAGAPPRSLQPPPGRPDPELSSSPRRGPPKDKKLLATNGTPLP
- test method notes: KINOMEscan competition binding
- particulars: compound 10.0 µM
Provide the reading as a plain figure in %.

[ask] Output measured kinase still bound, per cent of control for this item: CCC(=O)N1CCN(c2ccc(-n3c(=O)ccc4cnc5ccc(-c6cnc7ccccc7c6)cc5c43)cc2C(F)(F)F)CC1
[reply] 78

[ask] Output measured kinase still bound, per cent of control for this item: COc1cc(C(=O)NC2CCN(C)CC2)ccc1Nc1ncc2c(n1)N(C1CCCC1)C(C)CC(=O)N2C (stereo unspecified)
[reply] 100

[ask] Output measured kinase still bound, per cent of control for this item: Cn1c(=O)n(-c2ccc(C(C)(C)C#N)cc2)c2c3cc(-c4cnc5ccccc5c4)ccc3ncc21
[reply] 100
